# Assayed Target: T1, biotinylated goat anti-human kappa light chain
# T1 construct: positive control of the ELISA
# Assay Protocol: ELISA, positive control; also: test concentration or dose not given here
Observable: optical density (OD)
Your answer is read as OD, so omit the unit and give the number.

1. 365_G03 (antibody, V domains shown, Group III) VH: EVQLLESGGGLVQPGGSLRLSCAASGFTFSSYGMNWVRQAPGKGLEWVAGINYNSGYKGYADSVKGRFTISRDNSKNTLYLQMNSLRAEDTAVYYCARGANWHDTHLDYWGQGTLVTVSS VL: DIQMTQSPSSLSASVGDRVTITCRASQSIVSYLNWYQQKPGKAPKLLIYAATSRASGVPSRFSGSGSGTDFTLTISSLQPEDFATYYCQQSYNTPLTFGGGTKVEIK = 3.54
2. 371_A09 (antibody, V domains shown, Group I) VH: EVQLLESGGGLVQPGGSLRLSCAASGFTFSSYGMNWVRQAPGKGLEWVSGINYNGGYKSYADSVKGRFTISRDNSKNTLYLQMNSLRAEDTAVYYCARAANWHDTALDYWGQGTLVTVSS VL: DIQMTQSPSSLSASVGDRVTITCRASQSIVTYVNWYQQKPGKAPKLVIYAATSRASGVPSRFSGSGSGTDFTLTISSLQPEDFATYYCQQSYDSPLTFGGGTKVEIK = 3.62

Need optical density of 371_C02 (antibody, V domains shown, Group II) VH: EVQLLESGGGLVQPGGSLRLSCAASGFTFDSYGMHWVRQAPGKGLEWVAGINYNSGYTGYADSVKGRFTISRDNSKNTLYLQMNSLRAEDTAVYYCARAATWHDTHLDYWGQGTLVTVSS VL: DIQMTQSPSSLSASVGDRVTITCRASQSILTYVNWYQQKPGKAPKLLIYAASSLQSGVPSRFSGSGSGTDFTLTISSLQPEDFATYYCQQSYDTPLTFGGGTKVEIK , thanks.
3.66
